Molecular target: PKCa (Homo sapiens, UniProt P17252)
Test: Kinase profiling PKCa
Type: biochemical
Conditions: 100 micromolar inhibitor concentration; 100 is no change; read-out: residual kinase activity, PKCa
quantity: remaining activity at 100 µM (%)

> print(dat)
                         smiles.entry  measured
1             CC(=O)Nc1nc2ccc(O)cc2s1        77
2      CC(=O)Nc1nc2ccc(C(F)(F)F)cc2s1       101
3  CC(=O)Nc1nc2ccc([N+](=O)[O-])cc2s1        93
4             CC(=O)Nc1nc2cc(F)ccc2s1       101
5      CC(=O)Nc1nc2cc(C(F)(F)F)ccc2s1       111
6           CC(=O)Nc1nc2ccc(C#N)cc2s1        93
7            COc1ccc2sc(NC(C)=O)nc2c1       101
